- Tested On: FPR2 (Homo sapiens (Human))
- Experimental Protocol: FPR2 Ga16-CHO EC50 (efficacy), Tables 1-3
- Format: cell-based
pEC50: −log10 of the molar value.
Decision: pEC50 compared against 6; not below it gives TRUE, below it gives FALSE.

Compound	Tested On	Class Name
O=C(Nc1ccc(OC(F)(F)F)cc1)NC(Cc1ccccc1)C(=O)O (stereo not shown)	FPR2 (Homo sapiens (Human))	FALSE
O=C(CN1C(=O)NC2(CCCC2)C1=O)Nc1ccc(Br)cc1	FPR2 (Homo sapiens (Human))	TRUE
CCC1(C)NC(=O)N(CC(=O)Nc2ccc(Br)cc2)C1=O (stereo not shown)	FPR2 (Homo sapiens (Human))	TRUE

stdin: Entry CCC1(CC)NC(=O)N(CC(=O)Nc2ccc(Cl)cc2)C1=O : is its pEC50 no less than 6?
stdout: TRUE

stdin: Has O=C(Nc1ccc(Br)cc1)NC(Cc1c[nH]c2ccccc12)C(=O)O (stereo not shown) a recorded pEC50 greater than or equal to 6?
stdout: TRUE

stdin: Is the recorded value of pEC50 equal to or greater than 6 for this compound? CC(C)[C@H](NC(=O)Nc1ccc(Br)cc1F)C(=O)O
stdout: TRUE

stdin: # bool: pEC50 of O=C(Nc1cccnc1)NC(Cc1ccccc1)C(=O)O (stereo not shown) >= 6
stdout: FALSE

stdin: Can O=C(Nc1ccc(Cl)cc1)NN1C(=O)NC2(CCCCC2)C1=O be said to have pEC50 at or above 6?
stdout: TRUE

stdin: pEC50 >= 6 for COc1ccc(NC(=O)NC(Cc2ccccc2)C(=O)O)cc1OC (stereo not shown) ?
stdout: FALSE

stdin: Check the entry CCC1(CC)NC(=O)N(CC(=O)Nc2ccc(F)cc2)C1=O : does pEC50 equal or exceed 6?
stdout: FALSE

stdin: Please indicate if the recorded pEC50 for COc1ccc(NC(=O)N[C@@H](Cc2ccccc2)C(=O)O)cc1 meets or exceeds 6.
stdout: FALSE

----------
- Tested On: FPR2 (Homo sapiens (Human), UniProt P25090)
- Sequence (P25090 whole entry): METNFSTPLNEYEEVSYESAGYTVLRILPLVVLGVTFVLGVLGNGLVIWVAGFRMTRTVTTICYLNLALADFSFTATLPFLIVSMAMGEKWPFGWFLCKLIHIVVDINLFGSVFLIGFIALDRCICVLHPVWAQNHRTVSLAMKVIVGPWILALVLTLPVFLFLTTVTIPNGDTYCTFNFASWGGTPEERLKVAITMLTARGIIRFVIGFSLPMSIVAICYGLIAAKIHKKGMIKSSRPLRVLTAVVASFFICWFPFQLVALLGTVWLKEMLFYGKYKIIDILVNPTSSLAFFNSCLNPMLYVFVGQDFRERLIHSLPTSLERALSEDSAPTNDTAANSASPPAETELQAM
- Experimental Protocol: FLIPR Ca+2 response, HEK-Gα16 cells stably expressing the human FPR2 receptor (Table 4)
- Assay type: cell-based
- Conditions: efficacy in parentheses
Quantity Measured: FPR2 (efficacy)

Use the examples below as a reference point.
Molecule	Measured
CC(C)C[C@H](NC(=O)Nc1ccc(Br)cc1)C(=O)NCc1cc(O)no1 [Compound 116]	nM (1.0)
CC(C)C[C@H](NC(=O)Nc1ccc(Br)cc1)C(=O)N(C)CC(=O)OC(C)(C)C [Compound 154]	nM (0.85)
CC(C)C[C@H](NC(=O)Nc1ccc(Br)cc1)C(=O)N(C)CC(=O)O [Compound 155]	nM (1.0)
CCC(CC)(NC(=O)Nc1ccc(Br)cc1)C(=O)NCC(=O)O [Compound 113]	nM (1.0)

Let us examine a further case.
stdin: Which measured FPR2 (efficacy) value corresponds to CC1(C)C2CCC1C(C(=O)Nc1ccc(Br)cc1)C2C(=O)O (centres unmarked) [Compound 21] ?
stdout: nM (0.85)

----------
- Tested On: FPR2 (Homo sapiens (Human))
- Experimental Protocol: FLIPR Ca+2 response, HEK-Gα16 cells stably expressing the human FPR2 receptor (Table 4)
- Type: cell-based
Reported pEC50 by item:
Keep in mind that pEC50 stands for -log10 of concentration in molar terms.

Molecule	Quantity Measured	Measured
CCC[C@H](NC(=O)Nc1ccc(Br)cc1F)C(=O)NCC(=O)O [Compound 74]	pEC50	8.39
CCC1(CC)NC(=O)N(NC(=O)Nc2ccc(Br)cc2F)C1=O [Compound 50]	pEC50	7.80
CSc1ccc(NC(=O)N[C@@H](CC(C)C)C(=O)O)cc1 [Compound 128]	pEC50	7.77
CCC[C@H](NC(=O)Nc1ccc(Br)cc1)C(=O)NCP(=O)(OC(C)C)OC(C)C [Compound 125]	pEC50	8.92
CC(C)C1(CC(=O)NCCO)NC(=O)N(NC(=O)Nc2ccc(Br)cc2)C1=O (centres unmarked) [Compound 133]	pEC50	8.57
CCOP(=O)(CNC(=O)[C@H](CC(C)C)NC(=O)Nc1ccc(C(F)(F)F)cc1)OCC [Compound 134]	pEC50	8.26
CCOC(=O)C1CCC2(CC1)NC(=O)N(NC(=O)Nc1ccc(Br)cc1)C2=O (centres unmarked) [Compound 153]	pEC50	7.92
CC(C)C[C@H](NC(=O)Nc1ccc(Br)cc1)C(=O)N[C@H](C(=O)O)C(C)C [Compound 91]	pEC50	8.77
CCC[C@H](NC(=O)Nc1ccc(Br)cc1)C(=O)O [Compound 70]	pEC50	8.15
CC(C)C[C@H](NC(=O)Nc1ccc(Br)cc1)C(=O)N[C@@H](C)C(=O)O [Compound 90]	pEC50	7.94

stdin: So what does the record say about pEC50 for O=C(O)CNC(=O)C(Cc1c[nH]c2ccccc12)NC(=O)Nc1ccc(Br)cc1 (centres unmarked) [Compound 150] ?
stdout: 8.85

stdin: Please give the measured pEC50 for this molecule: CC(C)C1(CC(=O)NC(CO)CO)NC(=O)N(NC(=O)Nc2ccc(Br)cc2)C1=O (centres unmarked) [Compound 142]
stdout: 7.86

stdin: Entry O=C(O)C1C(C(=O)Nc2ccc(Br)cc2)C2C=CC1C21CC1 (centres unmarked) [Compound 12] has what pEC50?
stdout: 8.40

stdin: What does the record list as pEC50 for CCOP(=O)(CCNC(=O)[C@H](CC(C)C)NC(=O)Nc1ccc(Br)cc1)OCC [Compound 119] ?
stdout: 7.79

stdin: Returns the measured pEC50 for the input molecule. Input: CC1(CCc2ccco2)NC(=O)N(NC(=O)Nc2ccc(Br)cc2)C1=O (centres unmarked) [Compound 76]
stdout: 8.28

stdin: Query: pEC50; subject: O=C(O)[C@@H]1C2CCC([C@@H]1C(=O)Nc1ccc(Br)cc1)C21CC1 (relative stereo) [Compound 14]
stdout: 8.40

stdin: Dear colleague, I am looking for the recorded pEC50 of the following molecule: CC(C)C[C@H](NC(=O)Nc1ccc(Br)cc1)C(=O)N[C@H](C(N)=O)C(C)C [Compound 92]
stdout: 8.24
